Would you kindly list rep 3 no phene for each of these molecules?
- Test system: Pristionchus pacificus
- assay_method_text: Pristionchus pacificus motor disruption dose-response on solid media, 1 h
- experimental_parameters: conc 60; count of 20 animals per trial, one hour
Numbers only.

{"columns": ["molecule", "rep 3 no phene"],
 "data": [
  ["Fc1ccccc1N1CCN(C2CCCCCC2)CC1", 3],
  ["c1ccc(N2CCN(C3CCCCCCC3)CC2)cc1", 0],
  ["c1cc(N2CCN(CC3CCC3)CC2)ccn1", 20],
  ["O=[N+]([O-])c1ccc(N2CCN(C3CCCCC3)CC2)cc1", 0],
  ["c1ccc(N2CCN(C3CCCCCC3)CC2)cc1", 20]
]}

Please find the next molecule below.
Report rep 3 no phene for CC1CCC(N2CCN(c3ccc(F)cc3)CC2)CC1 (stereo not drawn)
0

###

For each record, write down the corresponding pEC50.
- Tested on: C. elegans
- assay_method_text: C. elegans motor phenotype scoring on solid media (Punc/jerky-unc, coiled, paralyzed), wild-type young adults
- Format: in vivo, Caenorhabditis elegans
- experimental_parameters: Caenorhabditis elegans; any motor phenotype after 1 h on solid media; ± 95% CI; read-out: C. elegans - motor disruption EC50
Give bare numbers, as −log10 of the molar value.

Sample answers from the record:
{"columns": ["compound", "target_or_test_system", "pEC50"],
 "data": [
  ["Fc1ccc(N2CCN(C3CCCCCC3)CC2)cc1 [Nemacol-51]", "C. elegans", 5.38],
  ["FC(F)(F)c1cccc(N2CCN(CC3CC4C=CC3C4)CC2)c1 (centres unmarked) [Nemacol-47]", "C. elegans", 5.24]
]}

Now, please, on to the next compound.
Identify pEC50 associated with the compound c1ccc(N2CCN(C3CCCCCC3)CC2)cc1 [Nemacol-59]
5.29

###

Give EC50 for every item shown.
- Test system: Pristionchus pacificus
- assay_method_text: Pristionchus pacificus motor disruption dose-response on solid media, 1 h
- experimental_parameters: Pristionchus pacificus, 1 h, read-out: P. pacificus motor disruption EC50

The examples below pair each entry with its known result.
{"columns": ["compound", "result"],
 "data": [
  ["O=C(C1CCCCC1)N1CCN(c2ccc([N+](=O)[O-])cc2)CC1", "> 60 µM"],
  ["O=C(C1CCCC1)N1CCN(c2ccc([N+](=O)[O-])cc2)CC1", "> 60 µM"],
  ["Cc1ccc(N2CCN(CC3CC4C=CC3C4)CC2)cc1 (stereo not drawn)", "31.5 µM"],
  ["O=[N+]([O-])c1ccc(N2CCN(C3CCCCC3)CC2)cc1", "14.3 µM"]
]}

Hey, quick one: what's EC50 for each of these?
1. Cc1cc(N2CCN(CC3CCCCC3)CC2)ccc1[N+](=O)[O-]
2. Fc1ccccc1N1CCN(C2CCCCCC2)CC1
3. CC1CCC(N2CCN(c3ccccc3)CC2)CC1 (stereo not drawn)
4. CCC1CCC(N2CCN(c3ccc([N+](=O)[O-])cc3)CC2)CC1 (stereo not drawn)
5. c1ccc(N2CCN(CC3CCCCC3)CC2)cc1
6. FC(F)(F)c1cccc(N2CCN(CC3CCCCC3)CC2)c1

1: > 60 µM; 2: 38.4 µM; 3: 49.2 µM; 4: 8.6 µM; 5: 17.3 µM; 6: > 60 µM

For each entry beneath this line, provide reported EC50.
1. CCN1CCN(c2ccc([N+](=O)[O-])cc2)CC1
2. O=[N+]([O-])c1ccc(N2CCN(c3ccccc3O)CC2)cc1
3. CC1CCC(N2CCN(c3ccc(Cl)cc3)CC2)C1 (stereo not drawn)
4. FC(F)(F)c1cccc(N2CCN(C3CCCCCCC3)CC2)c1
5. O=[N+]([O-])c1ccc(N2CCN(CC3CC4C=CC3C4)CC2)cc1 (stereo not drawn)

1: 17.8 µM; 2: > 60 µM; 3: 2.5 µM; 4: 49.2 µM; 5: 24.5 µM
